Endpoint summary: pIC50, system: Autotaxin (Homo sapiens, UniProt Q13822), multiple sources combined.
pIC50: −log10 of the molar value.
metric: pIC50

1. CCn1cc(/C(=N/Nc2nc(-c3ccc(Cl)cc3)c(C#N)s2)C(F)(F)F)c2cc(-c3nc(CN4CC(O)C4)cs3)ccc21 : 5.61
2. CCN1CCN(C(=O)C2CCN(c3cc4c(/C=N/Nc5nc(-c6ccc(F)cc6)c(C#N)s5)c(C)[nH]c4cc3F)CC2)CC1 : 6.80
3. CCS(=O)(=O)Oc1ccc(NC(=O)C2CCCCC2)cc1 : 5.74
4. CCn1cc(NC(=O)NCc2ccc(Cl)cc2)c2cc(-c3nc(CN4CCN(C)CC4)cs3)ccc21 : 6.70
5. CCc1nc2ccc(N3CCN(CC(=O)N4CC(O)C4)CC3)cn2c1N(C)c1nc(-c2ccc(F)cc2)c(C#N)s1 : 7.59
6. O=C(Nc1c2c(nn1-c1ccc(Br)cc1)CCC2)c1cc(Cl)cc(Cl)c1 : 5.18
7. CCn1cc(NC(=O)NCc2ccc(F)cc2)c2cc(-c3nc(CN4CCOCC4)cs3)ccc21 : 6.60
8. Cc1cc(C(=O)Nc2c3c(nn2-c2ccc(Br)cc2)CSC3)ccc1F : 4.38
9. CCN1CCN(Cc2csc(-c3ccc4c(c3)c(/C(=N/Nc3nc(-c5ccc(OC)cc5)c(C#N)s3)C(F)(F)F)cn4CC)n2)CC1 : 6.03
10. CC(C)(C)c1ccc(S(=O)(=O)Oc2ccc(NC(=O)C3CCCCCC3)cc2)cc1 : 5.41
11. O=C(Nc1c2c(nn1-c1ccc(Br)cc1)CSC2)c1cc(Cl)cc(Cl)c1 : 5.17
12. CO[C@](C(=O)Nc1c2c(nn1-c1ccc(Br)cc1)CCC2)(c1ccccc1)C(F)(F)F : 4.61
13. CCn1cc(/C(=N/Nc2nc(-c3ccc(OC)cc3)c(C#N)s2)C(F)(F)F)c2cc(-c3nc(CN4CCC[C@H]4CO)cs3)ccc21 : 6.06
14. CCn1cc(C(=O)O)c2cc(-c3nc(CN4CCOCC4)cs3)ccc21 : 6.09
15. CCn1cc(C(=O)N/N=C/c2ccc(F)c(F)c2)c2cc(-c3nc(CN4CCOCC4)cs3)ccc21 : 5.46
16. Cc1ccc(S(=O)(=O)Oc2ccc(NC(=O)C3CCCC3)cc2)cc1 : 4.87
17. CCn1cc(/C(=N/Nc2nc(-c3ccc(OC)cc3)c(C#N)s2)C(F)(F)F)c2cc(-c3nc(CN4CCOCC4)cs3)ccc21 : 5.69
18. CCc1nc2c(C)cc(-c3ccc(C(=O)N4CCC(O)CC4)cc3)cn2c1NC(=O)NCc1ccc(F)cc1 : 8.04
19. CCn1cc(/C(=N/Nc2nc(-c3ccc(F)cc3)c(C#N)s2)C(F)(F)F)c2cc(-c3nc(CN4CCN(CCO)CC4)cs3)ccc21 : 6.11
20. CCn1cc(C(=O)N/N=C/c2ccc(F)cc2F)c2cc(-c3nc(CN4CCOCC4)cs3)ccc21 : 5.39
21. C[C@H](CCC(=O)N1CCc2nc(NCCc3ccccc3F)ncc2C1)[C@H]1CC[C@H]2[C@@H]3[C@@H](O)C[C@@H]4C[C@H](O)CC[C@]4(C)[C@H]3CC[C@]12C : 7.81
22. CCCCCCC/C=C/CCCCCCCC[C@@H]1OC[C@H](COP(=O)(O)O)O1 : 7.01
23. O=C(OCc1cc(Cl)cc(Cl)c1)N1CCN(C2CN(C(=O)c3ccc4c(c3)COB4O)C2)CC1 : 6.89
24. CCn1cc(/C(=N/Nc2nc(-c3ccc(OC)cc3)c(C#N)s2)C(F)(F)F)c2cc(-c3nc(CN4CCC(O)CC4)cs3)ccc21 : 6.25
25. COc1ccc(CNC(=O)Nc2c(C)nc3c(C)cc(-c4ccc(CN5CCN(CCO)CC5)cc4)cn23)cc1Cl : 7.10
26. CCn1cc(NC(=O)NCc2ccc(F)cc2)c2cc(NC(=O)c3ccc(CN4CCN(C)CC4)cc3)ccc21 : 6.72
27. CCc1nc2cnc(N3CCN(CC(=O)N4CC(O)C4)CC3)cn2c1N(C)c1nc(-c2ccc(F)cc2)c(C#N)s1 : 6.99
